systemUnderTest: T1, His-tagged, full-length PCSK9 (human, UniProt Q8NBP7 31-692)
T1 construct: The secreted protein is autocleaved into a prodomain and a catalytic/Cys-rich chain that starts at S153; also called His-PCSK9
T1 sequence (Q8NBP7 other isoform, or with tags, fused parts or gaps limits assumed): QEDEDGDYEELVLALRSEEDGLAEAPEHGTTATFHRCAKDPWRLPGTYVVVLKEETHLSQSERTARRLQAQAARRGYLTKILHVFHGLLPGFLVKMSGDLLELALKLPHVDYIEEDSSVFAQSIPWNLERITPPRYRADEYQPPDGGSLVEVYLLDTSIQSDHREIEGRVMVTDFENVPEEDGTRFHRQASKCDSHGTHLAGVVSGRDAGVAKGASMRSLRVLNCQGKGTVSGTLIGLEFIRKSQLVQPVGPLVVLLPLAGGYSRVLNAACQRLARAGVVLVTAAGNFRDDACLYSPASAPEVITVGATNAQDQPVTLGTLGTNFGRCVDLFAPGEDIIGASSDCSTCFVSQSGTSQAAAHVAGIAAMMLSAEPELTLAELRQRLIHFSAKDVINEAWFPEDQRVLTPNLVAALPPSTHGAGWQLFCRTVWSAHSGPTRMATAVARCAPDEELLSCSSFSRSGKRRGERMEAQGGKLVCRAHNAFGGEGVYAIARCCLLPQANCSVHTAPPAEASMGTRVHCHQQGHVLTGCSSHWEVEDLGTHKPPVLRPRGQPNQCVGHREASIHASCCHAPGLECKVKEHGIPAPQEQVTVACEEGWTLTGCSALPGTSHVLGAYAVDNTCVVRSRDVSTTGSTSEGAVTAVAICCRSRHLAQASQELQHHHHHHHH
protocolDetails: TR-FRET competition; His-PCSK9, competitor EGF(A)-Fc
Square brackets hold non-standard residues; d marks the D form. Ends that are not written are not given here. hArg = N=C(N)NCCCC[C@H](N)C(=O)O
parameter: pIC50
Quick note: pIC50 means taking -log10 of the concentration in moles per liter.

Which pIC50 is reported for this binder? WNLV[hArg]IGLLR (also: further groups not given here, Structure printed only as a drawing) [Compound 216] 5.22
